# System: Escherichia coli
# TEST DESCRIPTION: The in vivo potency was determined in female charles river CD-1 mice infected with Escherichia coli after peroral administration
# Type: functional
# MEASUREMENT CONDITIONS: Escherichia coli, po; read-out: PD50
This section presents compounds with their documented ED50 values.
Supply the numeric figure in mg/kg, leaving out any unit text.

Look over these answered cases.
1) CCNCC1CCN(c2c(F)cc3c(=O)c(C(=O)O)cn(C4CC4)c3c2Cl)C1 (centres undefined)	4
2) CCNCC1CCN(c2c(F)cc3c(=O)c(C(=O)O)cn(C4CC4)c3c2F)C1 (centres undefined) [PD-117558]	4
3) C[C@@H]1CN(c2c(F)c(N)c3c(=O)c(C(=O)O)cn(C4CC4)c3c2F)C[C@H](C)N1 [SPARFLOXACIN]	1
4) CC1CN(c2cc3c(cc2F)c(=O)c(C(=O)O)cn3C2CC2)CC(C)N1 (centres undefined)	0.7
5) Nc1c(F)c(N2CCNCC2)cc2c1c(=O)c(C(=O)O)cn2C1CC1	4

## Task Find the recorded ED50 belonging to CC1CN(c2c(F)cc3c(=O)c(C(=O)O)cn(C4CC4)c3c2Cl)CCN1 (centres undefined) and report it.
## Result 0.6

## Task Find the recorded ED50 belonging to CC1COc2c(N3CCC(N)C3)c(F)cc3c(=O)c(C(=O)O)cn1c23 (centres undefined) and report it.
## Result 29

## Task Find the recorded ED50 belonging to Nc1c(F)c(N2CCC(N)C2)cc2c1c(=O)c(C(=O)O)cn2C1CC1 (centres undefined) and report it.
## Result 8

====

# System: Staphylococcus aureus
# TEST DESCRIPTION: Antibacterial activity was determined against gram positive organism, Staphylococcus aureus UC76
# Assay type: functional
# MEASUREMENT CONDITIONS: Staphylococcus aureus; read-out: MIC
Rule: MIC below 0.05 µg/mL gives y. Equal to or above 0.05 µg/mL gives n.

Answered cases to consult:
1) CCNCC1CCN(c2c(F)c(N)c3c(=O)c(C(=O)O)cn4c3c2OCC4C)C1 (stereo not given)	n
2) O=C(O)c1cn(C2CC2)c2c(F)c(N3CCNCC3)c(F)c(O)c2c1=O	n
3) NC1CCN(c2cc3c(c(O)c2F)c(=O)c(C(=O)O)cn3C2CC2)C1 (stereo not given)	y

## Task Is MIC of NC1CCN(c2c(F)c(O)c3c(=O)c(C(=O)O)cn(C4CC4)c3c2F)C1 (stereo not given) strictly below 0.05 µg/mL?
## Result y

## Task Is MIC of NC1CCN(c2c(F)cc3c(=O)c(C(=O)O)cn(C4CC4)c3c2Cl)C1 (stereo in doubt; 1f-4) strictly below 0.05 µg/mL?
## Result y

====

This section presents compounds with their documented Geometric mean MIC over Gram-negative bacteria (µg/mL) values.
# System: Bacteria
# TEST DESCRIPTION: MIC ratio measured as the mean MICs of gram-negative bacteria
# Assay type: functional
Please give the numeric answer without any surrounding text.

Look over these answered cases.
1. NC1CCN(c2c(F)cc3c(=O)c(C(=O)O)cn(C4CC4)c3c2Cl)C1 (stereo in doubt; 1f-4)	0.057
2. CCn1cc(C(=O)O)c(=O)c2c(O)c(F)c(N3CC(C)NC(C)C3)c(F)c21 (stereo not given)	2.41
3. CCn1cc(C(=O)O)c(=O)c2c(O)c(F)c(N3CCC(N)C3)c(F)c21 (stereo not given)	0.35
4. O=C(O)c1cn(C2CC2)c2c(Cl)c(N3CCNCC3)c(F)cc2c1=O	0.066
5. CC1CN(c2c(F)cc3c(=O)c(C(=O)O)cn(C4CC4)c3c2F)CC(C)N1 (stereo not given)	0.11
6. CC1CN(c2cc3c(c(N)c2F)c(=O)c(C(=O)O)cn3C2CC2)CCN1 (stereo not given)	0.058
7. CC1COc2c(N3CCC(N)C3)c(F)c(N)c3c(=O)c(C(=O)O)cn1c23 (stereo not given)	0.8
8. CCNCC1CCN(c2c(F)cc3c(=O)c(C(=O)O)cn(C4CC4)c3c2Cl)C1 (stereo not given)	0.13
9. Nc1c(F)c(N2CCNCC2)c(Cl)c2c1c(=O)c(C(=O)O)cn2C1CC1	0.076

Moving on to the next compound.
## Task Find the recorded Geometric mean MIC over Gram-negative bacteria (µg/mL) belonging to CC1CN(c2cc3c(cc2F)c(=O)c(C(=O)O)cn3-c2ccc(F)cc2F)CCN1 (stereo not given) and report it.
## Result 0.15

====

# TARGET ENTITY: DNA gyrase (Escherichia coli) (UniProt P0AES6+P0AES4)
# TEST DESCRIPTION: Minimum inhibitory concentration against Escherichia coli DNA-gyrase in supercoiling assay
# Assay type: functional
Rule: MIC below 2 µg/mL gives met. Equal to or above 2 µg/mL gives not met.

Answered cases to consult:
1) CCn1cc(C(=O)O)c(=O)c2c(N)c(F)c(N3CCNCC3)c(Cl)c21	not met
2) CC1CN(c2c(F)cc3c(=O)c(C(=O)O)cn(C4CC4)c3c2Cl)CCN1 (stereo not given)	not met
3) NC1CCN(c2c(F)cc3c(=O)c(C(=O)O)cn(C4CC4)c3c2F)C1 (stereo not given)	met
4) CCn1cc(C(=O)O)c(=O)c2c(O)c(F)c(N3CCNC(C)C3)c(F)c21 (stereo not given)	not met
5) CCn1cc(C(=O)O)c(=O)c2cc(F)c(N3CCC(N)C3)cc21 (stereo not given)	not met

Now consider the entry below.
## Task Is MIC of NC1CCN(c2c(F)c(O)c3c(=O)c(C(=O)O)cn(C4CC4)c3c2F)C1 (stereo not given) strictly below 2 µg/mL?
## Result met

====

# System: Bacteria
# TEST DESCRIPTION: MIC ratio measured as the mean MICs of gram-negative bacteria
# Type: functional
MEASUREMENT TYPE: Geometric mean MIC over Gram-negative bacteria (µg/mL)
Please give the numeric answer without any surrounding text.

1. CCn1cc(C(=O)O)c(=O)c2c(N)c(F)c(N3CCNCC3)c(Cl)c21	0.79
2. CCn1cc(C(=O)O)c(=O)c2c(N)c(F)c(N3CC(C)NC(C)C3)c(F)c21 (stereo not given)	1.58
3. CCn1cc(C(=O)O)c(=O)c2cc(F)c(N3CCNC(C)C3)cc21 (stereo not given)	0.23
4. Nc1c(F)c(N2CCC(N)C2)c(F)c2c1c(=O)c(C(=O)O)cn2C1CC1 (stereo not given)	0.016
5. CC1CN(c2cc3c(cc2F)c(=O)c(C(=O)O)cn3C2CC2)CCN1 (stereo not given)	0.066
6. CC1CN(c2c(F)cc3c(=O)c(C(=O)O)cn(C4CC4)c3c2F)CCN1 (stereo not given)	0.066

## Task Find the recorded Geometric mean MIC over Gram-negative bacteria (µg/mL) belonging to CC1CN(c2c(F)c(N)c3c(=O)c(C(=O)O)cn(C4CC4)c3c2Cl)CCN1 (stereo not given) and report it.
## Result 0.11

## Task Find the recorded Geometric mean MIC over Gram-negative bacteria (µg/mL) belonging to CCNCC1CCN(c2c(F)c(O)c3c(=O)c(C(=O)O)cn(CC)c3c2F)C1 (stereo not given) and report it.
## Result 1.38

## Task Find the recorded Geometric mean MIC over Gram-negative bacteria (µg/mL) belonging to O=C(O)c1cn(C2CC2)c2c(F)c(N3CCNCC3)c(F)c(O)c2c1=O and report it.
## Result 0.17

## Task Find the recorded Geometric mean MIC over Gram-negative bacteria (µg/mL) belonging to CCn1cc(C(=O)O)c(=O)c2cc(F)c(N3CC(C)NC(C)C3)cc21 (stereo not given) and report it.
## Result 0.6

====

This section presents compounds with their documented MIC values.
# System: Bacteria
# TEST DESCRIPTION: Antibacterial activity was determined against gram negative organism, Providencia rettgeri. M1771
# Assay type: functional
# MEASUREMENT CONDITIONS: Bacteria; read-out: MIC
Report the figure along with its unit, number first.

Look over these answered cases.
1) CC1CN(c2c(F)cc3c(=O)c(C(=O)O)cn(C4CC4)c3c2F)CCN1 (stereo not given)	0.1 µg/mL
2) CC1CN(c2c(F)c(N)c3c(=O)c(C(=O)O)cn(C4CC4)c3c2Cl)CC(C)N1 (stereo not given)	0.4 µg/mL
3) CCn1cc(C(=O)O)c(=O)c2c(O)c(F)c(N3CCNCC3)c(F)c21	1.6 µg/mL
4) CCNCC1CCN(c2cc3c(c(N)c2F)c(=O)c(C(=O)O)cn3CC)C1 (stereo not given)	12.5 µg/mL

Moving on to the next compound.
## Task Find the recorded MIC belonging to CCn1cc(C(=O)O)c(=O)c2cc(F)c(N3CCNCC3)c(Cl)c21 and report it.
## Result 0.4 µg/mL

====

# TARGET ENTITY: DNA gyrase (Escherichia coli) (UniProt P0AES6+P0AES4)
# TEST DESCRIPTION: Minimum inhibitory concentration against Escherichia coli DNA-gyrase in supercoiling assay
# Format: functional
This section presents compounds with their documented MIC values.
Supply the numeric figure in µg/mL, leaving out any unit text.

Look over these answered cases.
1. CC1CN(c2cc3c(cc2F)c(=O)c(C(=O)O)cn3C2CC2)CC(C)N1 (stereo not given)	1
2. NC1CCN(c2c(F)cc3c(=O)c(C(=O)O)cn(C4CC4)c3c2Cl)C1 (stereo in doubt; 1f-4)	0.25
3. CCn1cc(C(=O)O)c(=O)c2cc(F)c(N3CC(C)NC(C)C3)cc21 (stereo not given)	2.5
4. CC1COc2c(N3CCC(N)C3)c(F)c(N)c3c(=O)c(C(=O)O)cn1c23 (stereo not given)	2.5
5. CC1CN(c2c(F)c(N)c3c(=O)c(C(=O)O)cn(C4CC4)c3c2Cl)CCN1 (stereo not given)	3.8
6. CCn1cc(C(=O)O)c(=O)c2cc(F)c(N3CCNCC3)c(F)c21	2.5
7. CCn1cc(C(=O)O)c(=O)c2c(N)c(F)c(N3CCNC(C)C3)c(F)c21 (stereo not given)	7.5
8. CCNCC1CCN(c2c(F)cc3c(=O)c(C(=O)O)cn(CC)c3c2Cl)C1 (stereo not given)	2.5
9. Nc1c(F)c(N2CCNCC2)c(Cl)c2c1c(=O)c(C(=O)O)cn2C1CC1	1

Moving on to the next compound.
## Task Give DNA gyrase (Escherichia coli) (UniProt P0AES6+P0AES4) MIC for Nc1c(F)c(N2CCC(N)C2)cc2c1c(=O)c(C(=O)O)cn2C1CC1 (stereo not given)
## Result 2
